FYI, the data here is from PubChem BioAssay AID1963986.

Test system: 171881-019-R-J1-PDC tumor spheroid viability
ASSAY_PROCEDURE: Anticancer human tumor 171881-019-R-J1-PDC patient-derived invasive breast carcinoma cell line growth inhibition [PI3K]
DETAILS: second compound 0.0316 µM; first compound 0.316 µM; stronger effect = lower value; spheroids with HUVEC and MSC
REPORTED_ENDPOINT: viability, T/C (%)
Answers are plain numbers, in %.

Sample answers from the record:
INSERT INTO measurements (compound, tested_on, assay_result) VALUES
  ('CCCS(=O)(=O)Nc1ccc(F)c(C(=O)c2c[nH]c3ncc(-c4ccc(Cl)cc4)cc23)c1F + CC(Nc1ccc2c(c1)OCCn1cc(N3C(=O)OCC3C(F)F)nc1-2)C(N)=O', '171881-019-R-J1-PDC tumor spheroid viability', 81.9),
  ('C#Cc1c(F)ccc2cc(O)cc(-c3ncc4c(N5CC6CCC(C5)N6)nc(OCC56CCCN5CC(F)C6)nc4c3F)c12 (stereo not drawn) + Cc1nc(NC(=O)N2CCCC2C(N)=O)sc1-c1ccnc(C(C)(C)C(F)(F)F)c1', '171881-019-R-J1-PDC tumor spheroid viability', 44.4);

From here, focus on the item given below.
Challenge: Value lookup for viability, T/C; key = CC(Cn1ccc(-c2ccc(C#N)c(Cl)c2)n1)NC(=O)c1cc(C(C)O)[nH]n1 (stereo not drawn) + COc1c(OCCCN2CCOCC2)ccc2c3n(c(=NC(=O)c4cnc(N)nc4)nc12)CCN3
Response given: 21.9

----------
Can you tell me IC50 for the items I'm about to list?
Test system: 171881-019-R-J1-PDC tumor spheroid viability
ASSAY_PROCEDURE: Anticancer human tumor 171881-019-R-J1-PDC cell line growth inhibition [PI3K];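 also: spheroids exposed to compound for 7 days before viability read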
DETAILS: curve of first compound; second compound 1 µM; spheroids with HUVEC and MSC

Sample answers from the record:
INSERT INTO measurements (compound, reported_endpoint, assay_result) VALUES
  ('Cn1nccc1Nc1nccc(-c2ccn(C(CO)c3ccc(Cl)c(F)c3)c(=O)c2)n1 (stereo not given) + COc1c(OCCCN2CCOCC2)ccc2c3n(c(=NC(=O)c4cnc(N)nc4)nc12)CCN3', 'IC50', '< 31.6 nM'),
  ('Cn1ncnc1[C@H]1c2n[nH]c(=O)c3cc(F)cc(c23)N[C@@H]1c1ccc(F)cc1 + CC(Nc1ncnc2nc[nH]c12)c1cc2cccc(Cl)c2c(=O)n1-c1ccccc1', 'IC50', '> 100 nM'),
  ('CC(=O)c1c(C)c2cnc(Nc3ccc(N4CCNCC4)cn3)nc2n(C2CCCC2)c1=O + CC(Nc1ccc2c(c1)OCCn1cc(N3C(=O)OCC3C(F)F)nc1-2)C(N)=O', 'IC50', '< 0.316 nM');

Batch request: IC50 for each of the following compounds.
1. C#Cc1c(F)ccc2cc(O)cc(-c3ncc4c(N5CC6CCC(C5)N6)nc(OCC56CCCN5CC(F)C6)nc4c3F)c12 (stereo not given) + CC(Nc1ccc2c(c1)OCCn1cc(N3C(=O)OCC3C(F)F)nc1-2)C(N)=O
2. Cn1nccc1Nc1nccc(-c2ccn(C(CO)c3ccc(Cl)c(F)c3)c(=O)c2)n1 (stereo not given) + Cc1nc(NC(=O)N2CCCC2C(N)=O)sc1-c1ccnc(C(C)(C)C(F)(F)F)c1

Response given:
["< 31.6 nM", "< 31.6 nM"]
